Origin of values: patent US20260364080A1

TARGET_UNDER_TEST: Myt1 kinase (recombinant PMYT-1) (Homo sapiens, UniProt Q99640)
Construct: full length PMYT-1 was expressed by baculovirus in insect cells; purchased Invitrogen A30984; host or cells: insect cells (baculovirus)
Sequence (Q99640 whole entry): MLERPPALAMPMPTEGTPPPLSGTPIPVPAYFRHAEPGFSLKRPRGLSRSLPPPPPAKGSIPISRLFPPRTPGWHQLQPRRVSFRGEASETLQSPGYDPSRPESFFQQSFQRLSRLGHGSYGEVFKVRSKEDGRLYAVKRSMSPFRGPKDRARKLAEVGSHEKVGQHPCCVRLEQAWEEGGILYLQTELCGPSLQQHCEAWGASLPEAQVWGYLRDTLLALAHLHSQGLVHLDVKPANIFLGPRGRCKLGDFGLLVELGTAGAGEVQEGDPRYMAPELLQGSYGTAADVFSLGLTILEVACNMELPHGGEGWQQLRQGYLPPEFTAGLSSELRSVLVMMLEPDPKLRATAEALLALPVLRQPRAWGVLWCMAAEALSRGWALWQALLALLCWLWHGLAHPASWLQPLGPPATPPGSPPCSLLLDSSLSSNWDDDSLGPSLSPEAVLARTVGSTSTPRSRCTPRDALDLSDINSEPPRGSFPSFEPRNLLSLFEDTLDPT
PROTOCOL_TEXT: Myt1 kinase binding assay (LanthaScreen Eu Kinase Binding Assay)
DETAILS: 3 nM tracer 178, 2.5 nM PMYT-1, 1 nM Eu-labeled antibody; read-out: Myt1 kinase Binding IC50
Protocol: To calculate the emission ratio, the acceptor/tracer emission ([…]) was divided by the antibody/donor emission ([…]) and the average of duplicate measurement was used for calculations. Data plotting, analysis of binding, and curve fitting was done using Excel add-in XLfit version 5.5.0.5 (IDBS, Guildford, United Kingdom). […] “NT” means not tested. We used a LanthaScreen Europium (Eu) Kinase Binding Assay to determine the binding affinities (IC50) of compounds to Myt1 kinase. […]
pIC50: −log10 of the molar value.
Exercise: for every item that follows, state its recorded pIC50.

# CHEMICAL_SMILES, QUANTITY_KIND, RESULT
records = [
    ("CCn1c(=O)c2cnc(Nc3ccc(Br)cc3)nc2n1-c1cccc(OC2CCN(C)CC2)n1", "pIC50", "> 7.70"),
    ("C=CCn1c(=O)c2cnc(Nc3ccc4nc(C)oc4c3)nc2n1-c1cccc(OC2CCNCC2)n1", "pIC50", "7.00 to 7.70"),
    ("C=CCn1c(=O)c2cnc(Nc3ccc4nccn4c3)nc2n1-c1cccc(OC2CCNCC2)n1", "pIC50", "7.00 to 7.70"),
]

So what pIC50 did "C=CCn1c(=O)c2cnc(Nc3cccc(C#N)c3)nc2n1-c1cccc(OC2CCN(C)CC2)n1" get with Myt1 kinase (recombinant PMYT-1) (Homo sapiens, UniProt Q99640)? 7.00 to 7.70
